target: HCV E1E2 antigen, isolate UKN1B12.16 (hepatitis C virus, isolate UKN1B12.16); experiment: ELISA, Fab on E1E2 antigen
attribute-measured: OD 450 nm (OD 450 nm)
Answers are plain numbers, in OD 450 nm.

Dear colleague, could you send me OD 450 nm for each of the items below? Thanks.
1. Fab R1 (Fab, V domains shown) VH: VQLLEQSGAEVKKPGASVKVSCKASGYTFSIYGVAWVRQAPGQGLEWMGWISPQNGDTHSPQKFQGRLTMTTDTSTSTAYMELRSLRSDDTAVYFCARDYGVNFGGGSEHNLDYWGRGTRVTVSS VL: ELTQSPLSLPVTPGEPASISCRSSYSLLHINGYKYLDWYLQRPGQSPQLLIYLGSNRAPGVPDRFSGSGSGTSFTLKISRVEAEDVGVYYCMQSLQAPWTFGQGTKVEMKR
2. Fab Q2 (Fab, V domains shown) VH: VQLLEQSGAEVKKPGASVKVSCKASGYTFTNNGLNWVRQAPGQGLEWMGWISPYNGDTDFAHKFQGRISMTTDTSTNTAYMELRSLRSDDTAVYYCARDRNSAGGTWLFRDPPPGSTFFDSWGQGSLVTVSS VL: ELTQSPASLSLSPGGSATLACRASRGVNSNLAWYHQKPGQAPRLLIYSASTRATGIPGRFSGSGFGTEFTLTINNLQSDDFGVYYCQQYDDTPQITFGQGTRLDIKR
3. Fab N1 (Fab, V domains shown) VH: VQLLEQSGPEVKKPGDSLRISCKMSGDSLVTTWIGWVRQKPGQGLEWMGIINPGDSSTNIYPGDSATRYGPSFQGQVTISIDKSTSTAYLQWNAVKPSDTGIYYCARHVPVPISGTFLWREREMHDFGYFDDWGQGTLVIVSS VL: ELTQSPGTLSLSPGERATLSCRASQSVSSSYLAWYQQKPGQAPRLLIYGASNRAAGIPDRFSGSGSGADFTLTISRLEPEDFAVYYCQQYGSSLITFGQGTRLEIKR

1: 0.03; 2: 0.21; 3: 0.65
